assay-system: BRD4(1) (Homo sapiens, UniProt O60885)
protocol-text: Thermal shift assay
Assay type: binding

molecule: CCc1noc2cc(OC)c(NS(=O)(=O)c3cccs3)cc12 [Compound 11y]
binding activity to BRD4 (TSA), in words: good binding activities
//
molecule: CCc1noc2cc(OC)c(NS(=O)(=O)c3cccnc3)cc12 [Compound 11z]
binding activity to BRD4 (TSA), in words: good binding activities

----------
assay-system: BRD4(1) (Homo sapiens, UniProt O60885)
metric: IC50 (nM)
Use nM as the unit, but write only the number.

Query :: Given the entry CCc1noc2cc(OC)c(NS(=O)(=O)c3ccccc3OC)cc12 [Compound 11h] , report its measured IC50.
Result :: 94
